Tested on: LOX IMVI
Assay: NCI tumour cell line growth inhibition, 48 h
Activity calls are given as the source filed them. Rule as the data show it: active = GI50 up to about 1.1 µM and inactive = higher.
Classes used: 1 = active, 0 = inactive

1) COc1ccc2c(c1)-c1nc(=S)n(CCCN(C)C)c3ccc([N+](=O)[O-])c(c13)N2 | 1
2) Cn1c(O)c(C(=O)Nc2ccc([N+](=O)[O-])cc2)c(=O)n(C)c1=S | 0
3) Nc1ncnc2c(C3OC(CO)C(O)C3O)scc12 (stereo unspecified) | 1
4) C[C@]12CC[C@H](O)C[C@@H]1CC[C@@H]1[C@@H]2CC[C@]2(C)[C@@H](C3=CC(=O)OC3)CC[C@]12O | 0
5) O=C(Nc1ccc(Cl)cc1Cl)c1cc2nc3ccccc3c(=O)n2c2ccccc12 | 0
6) CNc1nc(=S)[nH]c2sc3c(c12)CCCC3 | 0
7) Cn1cc(C2NC(=O)c3ccccc3N2)c2ccccc21 (stereo unspecified) | 1
8) CCCCCCCCCCCCNC(C)=O | 0
9) COC(=O)C1Cc2c([nH]c3ccccc23)C(c2ccccc2O)N1 (stereo unspecified) | 0
10) COc1cc2c(cc1OC)C(SC)C(=O)N(Cc1cccc(OC)c1OC)CC2 (stereo unspecified) | 0
11) [O-][Cl+3]([O-])([O-])[O-].[O-][Cl+3]([O-])([O-])[O-].c1ccn2c(N3CCCC3)[n+]3c4ccccc4n4c(N5CCCC5)[n+]5ccccc5c4c3c2c1 | 0
12) CC1=NN(c2nc(N)nc(CBr)n2)C(C)(C)C1 | 1
13) Cc1c(C2Cc3ccccc3N2C(=O)/C=C\C(=O)O)c2ccccc2n1C (stereo unspecified) | 0
14) CC(=O)OCCN1c2ccccc2Sc2cnccc21 | 0
15) CC1=NN(C(=O)CC(=O)Nc2cccc(Cl)c2)C(=O)C1/N=N/c1ccc(S(N)(=O)=O)cc1 (stereo unspecified) | 0
16) O=C(CBr)c1ccc2cc(Br)c3ccccc3c2c1 | 0
17) CCCCC1=C(C(=O)N2CCOCC2)C2(OCCO2)C1Cl (stereo unspecified) | 0
18) COC(=O)CCCCC/C(=C\C(=O)C(Cl)(Cl)Cl)OC | 0
19) O=C(O)c1ccc(OCc2nc3cc(C(F)(F)F)ccc3nc2-c2ccccc2)cc1 | 0
20) O=C(c1no[n+]([O-])c1C(=O)c1csc2ccccc12)c1csc2ccccc12 | 0
21) Nc1ncnc2c1ncn2CC(O)C(=O)O (stereo unspecified) | 0
